- Test system: Saccharomyces cerevisiae
- protocol-details: Ability to inhibit cell proliferation of Saccharomyces cerevisiae strain BY4741
- Assay type: functional, organism-based
endpoint-label: pIC50
On this scale, pIC50 is minus log10 of a concentration expressed in M (mol/L).

Request: pIC50 lookup needed for C[C@@H]1C[C@H](C)C[C@H](C)[C@@H](O)CC(=O)O[C@H]([C@@H]2CCC[C@H]2C(=O)O)C/C=C/C=C(/C#N)[C@H](O)[C@@H](C)C1 [BORRELIDIN] , thanks.
Response: 4.64
